A compilation of pIC50 values for Mast/stem cell growth factor receptor Kit (Homo sapiens) from the published literature.
pIC50: −log10 of the molar value.

{"molecule": "O=C(c1ccc(Cl)cc1)c1c[nH]c2ncc(Br)cc12", "target_entity": "Mast/stem cell growth factor receptor Kit (Homo sapiens)", "pIC50": "≥ 5.00"}
{"molecule": "COc1cnc2[nH]cc(C(=O)c3c(F)ccc(NS(C)(=O)=O)c3F)c2c1", "target_entity": "Mast/stem cell growth factor receptor Kit (Homo sapiens)", "pIC50": "≥ 5.00"}

Hello, please tell me recorded pIC50 for this one: CCC(C)S(=O)(=O)Nc1ccc(F)c(C(=O)c2c[nH]c3ncc(Cl)cc23)c1F (centres unmarked)
≥ 5.00

Hello, please tell me recorded pIC50 for this one: O=C(c1cccc(NS(=O)(=O)c2cccc(C(F)(F)F)c2)c1)c1c[nH]c2ncc(Cl)cc12
≥ 5.00

Hello, please tell me recorded pIC50 for this one: COc1ccc(Nc2ccc(C(=O)c3c[nH]c4ncnc(NC5CC5)c34)c(F)n2)cn1
> 7.00

Hello, please tell me recorded pIC50 for this one: O=C(c1c(Cl)cccc1Cl)c1c[nH]c2ncc(-c3cccnc3)cc12
≥ 5.00

Hello, please tell me recorded pIC50 for this one: COc1cc(Cc2c[nH]c3ncccc23)cc(F)c1OCc1ccc(Cl)cc1
≥ 5.00

Hello, please tell me recorded pIC50 for this one: CCNC(=O)CCc1cnc2[nH]cc(C(=O)c3c(F)ccc(NS(=O)(=O)c4ccc(C(F)(F)F)cc4)c3F)c2c1
≥ 5.00

Hello, please tell me recorded pIC50 for this one: CC(C)c1cncc(NC(=O)Nc2ccc(Oc3ccnc(-c4cnn(C)c4)c3)cc2F)c1
> 7.00

Hello, please tell me recorded pIC50 for this one: CCc1ccc(Nc2ccc(C(=O)c3c[nH]c4ncnc(N)c34)c(F)n2)cn1
> 7.00

Hello, please tell me recorded pIC50 for this one: c1csc(-c2cnc3[nH]ccc3c2)c1
≥ 5.00

Hello, please tell me recorded pIC50 for this one: CN1CCN(Cc2cc(NC(=O)c3ccc4c(c3)CN(c3cnc5ccccc5c3)CC4)cc(C(F)(F)F)c2)CC1
5.06

Hello, please tell me recorded pIC50 for this one: COc1cnc2[nH]cc(C(=O)c3c(F)ccc(NS(=O)(=O)C(C)C)c3F)c2c1
≥ 5.00

Hello, please tell me recorded pIC50 for this one: CCCS(=O)(=O)Nc1ccc(F)c(C(=O)c2c[nH]c3ncc(C#CCN(CC)CC)cc23)c1F
≥ 5.00

Hello, please tell me recorded pIC50 for this one: CC(C)c1ccc(S(=O)(=O)Nc2ccc(F)c(C(=O)c3c[nH]c4ncc(-c5cnn(C)c5)cc34)c2F)cc1
≥ 5.00

Hello, please tell me recorded pIC50 for this one: COc1cc(Cc2c[nH]c3ncc(Br)cc23)cc(OC)c1
≥ 5.00

Hello, please tell me recorded pIC50 for this one: CNc1ncc2c(n1)N1CCN=C1C(c1cc(NC(=O)Nc3cc(C(F)(F)F)ccc3F)c(F)cc1C)=C2
> 7.00

----------
A compilation of IC50 values for Mast/stem cell growth factor receptor Kit (Homo sapiens, UniProt P10721) from the published literature.

Answered examples (7):
{"compound": "Cc1nc(-c2cnc(NC(C)C)[nH]c2=O)ccc1Cc1c[nH]c2ncc(F)cc12", "IC50": "222 nM"}
{"compound": "Cc1cnc2[nH]cc(Cc3cnc(Nc4ccc(C(C)(C)C)cc4)nc3)c2c1", "IC50": "< 100 nM"}
{"compound": "COCCN1CCC(Nc2ccc3c(c2)/C(=C(\\c2ccccc2)c2nc4ccccc4[nH]2)C(=O)N3)CC1", "IC50": "< 50 nM"}
{"compound": "CCCS(=O)(=O)Nc1ccc(F)c(C(=O)c2c[nH]c3ncc(-c4ccn[nH]4)cc23)c1F", "IC50": "≤ 10000 nM"}
{"compound": "CCCC(=O)Nc1ccc(F)c(C(O)c2c[nH]c3ncc(-c4cccnc4)cc23)c1F (centres unmarked)", "IC50": "≤ 10000 nM"}
{"compound": "Cc1ccccc1C(=O)c1c[nH]c2ncc(-c3cccc(N)c3)cc12", "IC50": "≤ 10000 nM"}
{"compound": "O=C(c1cc(NS(=O)(=O)c2cccc(Cl)c2)ccc1F)c1c[nH]c2ncc(Cl)cc12", "IC50": "≤ 10000 nM"}

Recall the reported IC50 of COc1cc2c(Oc3ccc(NC(=O)C(=O)NCCc4ccccc4)cc3F)ccnc2cc1OCCCN1CCOCC1 on Mast/stem cell growth factor receptor Kit (Homo sapiens, UniProt P10721) and write it down.
< 50 nM
